Assay Explanation: Squirrel monkey plasma levels
Type: in vivo
Recorded Conditions: read-out: Area under the curve
Each entry below lists one item and its recorded AUC value.
# value in ng·h/mL; strip the unit string

Field: example entries. Status: answers known.
C=C(C)[C@@H](N)C(=O)N[C@@H]1C(=O)N2[C@@H]1SC(C)(C)[C@@H]2C(=O)O | 46500
C=C[C@@H](N)C(=O)N[C@@H]1C(=O)N2[C@@H]1SC(C)(C)[C@@H]2C(=O)O | 59700

Dear colleague, I am looking for the recorded AUC of the following molecule: CC1(C)S[C@@H]2[C@H](NC(=O)[C@H](N)C=C(Cl)Cl)C(=O)N2[C@H]1C(=O)O [Example 5 (D-stereoisomer)]
63000

Which measured AUC value corresponds to CC1(C)S[C@@H]2[C@H](NC(=O)[C@H](N)c3ccc(O)cc3)C(=O)N2[C@H]1C(=O)O [Amoxycillin, reference compound] ?
26200

---

System: S.pyogenes CN 10
Assay Explanation: Minimum Inhibitory Concentration (MIC), agar dilution
Format: cell-based
Recorded Conditions: 5% v/v horse blood agar, two-fold dilutions, read after 24 hours; unit assumed
Quantity Name: MIC S. pyogenes CN 10 (µg/mL)
Write it as a number; the unit µg/mL goes unstated.

Example results:
C=C(C)[C@@H](N)C(=O)N[C@@H]1C(=O)N2C(C(=O)O)=C(C)CS[C@H]12 | 2
C/C(=C\Cl)[C@@H](N)C(=O)N[C@@H]1C(=O)N2[C@@H]1SC(C)(C)[C@@H]2C(=O)O [Example 21 (D-stereoisomer)] | 0.06
C=C(c1cccs1)[C@@H](N)C(=O)N[C@@H]1C(=O)N2[C@@H]1SC(C)(C)[C@@H]2C(=O)O [Example 18 (D-stereoisomer)] | 0.06

Fill in the blank: the reported MIC S. pyogenes CN 10 of C=C[C@@H](N)C(=O)N[C@@H]1C(=O)N2[C@@H]1SC(C)(C)[C@@H]2C(=O)O is ____.
0.03

Param item = CC1(C)S[C@@H]2[C@H](NC(=O)C(N)/C(=C\Cl)c3cccs3)C(=O)N2[C@H]1C(=O)O (some centres unmarked) ; retrieve measured MIC S. pyogenes CN 10.
0.06

# input compound: C=C/C=C(\C)[C@@H](N)C(=O)N[C@@H]1C(=O)N2[C@@H]1SC(C)(C)[C@@H]2C(=O)O [Example 12 (D-stereoisomer)] ; wanted: its MIC S. pyogenes CN 10
0.06

Query: MIC S. pyogenes CN 10; subject: C=C(C)[C@@H](N)C(=O)N[C@@H]1C(=O)N2C(C(=O)O)=C(COC(C)=O)CS[C@H]12
0.25

---

# concentration at 2 h per entry
Assay Explanation: Squirrel monkey plasma levels
Type: in vivo
Recorded Conditions: 120 minutes, read-out: Plasma Levels, Time in Minutes 120
# output: numeric value plus its unit

Solved cases below.
C=C(C)[C@@H](N)C(=O)N[C@@H]1C(=O)N2[C@@H]1SC(C)(C)[C@@H]2C(=O)O | 13 µg/mL
C=C[C@@H](N)C(=O)N[C@@H]1C(=O)N2[C@@H]1SC(C)(C)[C@@H]2C(=O)O | 15.7 µg/mL
CC1(C)S[C@@H]2[C@H](NC(=O)[C@H](N)c3ccc(O)cc3)C(=O)N2[C@H]1C(=O)O [Amoxycillin, reference compound] | 6.7 µg/mL

For the next question, use this compound.
# lookup: concentration at 2 h of CC1(C)S[C@@H]2[C@H](NC(=O)[C@H](N)C=C(Cl)Cl)C(=O)N2[C@H]1C(=O)O [Example 5 (D-stereoisomer)]
16.8 µg/mL
